# Test system: Dd2
# assay: qHTS profiling for inhibitors of Plasmodium falciparum proliferation (AID 504749); also: nearly all actives have a fitted effect of over 60% in size
# condition.description: P. falciparum in erythrocytes, SYBR Green DNA, 72 h; series mostly up to 28.7 µM
Results filed as inconclusive are left out. Activity calls are given as the source filed them. Calls follow the shape of the dose curve; as a rule, active = well fitted inhibition curve with a large enough effect; inconclusive = small, poorly fitted or top-dose-only effect; inactive = flat fitted curve, though single readings scatter.
Would you mind answering with one of these outcomes? active, inactive

Please review the following examples before continuing.
>>> label_class("C[C@@H](N)[C@@H](O)c1ccc(O)c(O)c1")
"inactive"
>>> label_class("CCC/C=C/C=C/C(=O)OC1/C(=C/C(=O)OC)CC2CC(C(C)O)OC(=O)CC(O)CC3CC(OC(C)=O)C(C)(C)C(O)(CC4C/C(=C/C(=O)OC)CC(/C=C\\C(C)(C)C1(O)O2)O4)O3 (centres undefined)")
"active"
>>> label_class("CCCCCc1cc(O)c2c(c1)OC(C)(C)C1CC=C(C)CC21 (centres undefined)")
"active"
>>> label_class("CN(C)[C@@H](Cc1ccccc1)c1ccccc1")
"active"
>>> label_class("CCN(CC)C(=O)N[C@@H]1C=C2c3cccc4[nH]cc(c34)C[C@H]2N(C)C1")
"active"
>>> label_class("Cc1ccc2c(c1)[C@@H]1CN(C)CC[C@H]1N2")
"inactive"
>>> label_class("CC1(C)S[C@@H]2[C@H](N)C(=O)N2C1C(=O)O (some centres undefined)")
"inactive"
>>> label_class("C#CCN1CC(=O)N(COC(=O)[C@@H]2[C@@H](C=C(C)C)C2(C)C)C1=O")
"inactive"

stdin: GET /call?item= CC(=O)O[C@H]1C[C@H](O[C@H]2[C@@H](O)CC(O[C@H]3[C@@H](O)C[C@H](O[C@H]4CC[C@@]5(C)[C@H](CC[C@@H]6[C@@H]5CC[C@]5(C)[C@@H](C7=CC(=O)OC7)CC[C@]65O)C4)O[C@@H]3C)O[C@@H]2C)O[C@H](C)[C@H]1O[C@@H]1O[C@H](CO)[C@@H](O)[C@H](O)[C@H]1O (some centres undefined) returns the recorded outcome of this test.
stdout: inactive

stdin: Record lookup: outcome of this test for CC(CO)NC(=O)C1C=C2c3cccc4[nH]cc(c34)CC2N(C)C1 (centres undefined) ?
stdout: inactive

stdin: Each compound tested received a call. Report the one for COc1ccc2c3c1O[C@H]1[C@@H](O)C=C[C@H]4C(C2)NCCC341 (some centres undefined) .
stdout: inactive

====

# Tested on: DIV14
# assay: qHTS profiling for inhibitors of Plasmodium falciparum proliferation (AID 504749); also: nearly all actives have a fitted effect of over 60% in size; also: potency is read from the fitted curve at half-maximal effect
# condition.description: P. falciparum in erythrocytes, SYBR Green DNA, 72 h; series mostly up to 28.7 µM
# Procedure: NIH National Institute of Allergy and Infectious Diseases [NIAID] NIH Chemical Genomics Center [NCGC] […] Because mature erythrocytes lack DNA, only Plasmodium-derived DNA is detected. NCGC Assay Protocol Summary: The SYBR Green viability assay was adapted from a method described previously (Plouffe et al., 2008). […] The following morning, fluorescence intensity at 485(14) nm excitation and 535(25) nm emission wavelengths was measured on an EnVision (Perkin Elmer) plate reader. […]
Results filed as inconclusive are left out. The source made the active and inactive calls. The call rests on the fitted dose curve; in most records, active means well fitted inhibition curve with a large enough effect; inconclusive means small, poorly fitted or top-dose-only effect; inactive means flat fitted curve, though single readings scatter.
measure: Potency

>>> observed_value("CCOC(=O)/C=C(C)/C=C/CC(C)CCCC(C)C (stereo unspecified)")
"inactive"
>>> observed_value("C[C@@H](N)[C@@H](O)c1ccc(O)c(O)c1")
"inactive"
>>> observed_value("CC(C)=CC1C(C(=O)OCc2coc(Cc3ccccc3)c2)C1(C)C (stereo unspecified)")
"inactive"
>>> observed_value("CC1(C)[C@@H](C=C(Cl)Cl)[C@@H]1C(=O)OCc1c(F)c(F)cc(F)c1F")
"inactive"
>>> observed_value("NC(Cc1ccc(Oc2cc(I)c(O)c(I)c2)c(I)c1)C(=O)O (stereo unspecified)")
"inactive"
>>> observed_value("Nc1nc(O)c(-c2ccccc2)o1")
"inactive"
>>> observed_value("CCN(CC)C(=O)N[C@@H]1C=C2c3cccc4[nH]cc(c34)C[C@H]2N(C)C1")
"13.5 µM (active)"
>>> observed_value("C[C@]12CC[C@H]3[C@@H](CC[C@@]45O[C@@H]4C(=O)C(C#N)C[C@]35C)[C@@H]1CC[C@@H]2O (stereo partly specified)")
"inactive"
>>> observed_value("C[C@]12CCC3C(CCC4=C(Cl)C(=O)CC[C@@]43C)C1CCC2O (stereo partly specified)")
"inactive"
>>> observed_value("O=[N+]([O-])OC1CO[C@H]2C(O[N+](=O)[O-])COC12 (stereo partly specified)")
"inactive"

Next up:
The recorded Potency for entry C#CC1(O)C=CC2C3CCC4=CC(=O)CCC4C3CCC21CC (stereo unspecified) equals 6.75 µM (active)

====

# tested.on: Peroxisome proliferator-activated receptor gamma (Homo sapiens)
# assay: qHTS assay for small molecule antagonists of peroxisome proliferator-activated receptor gamma signaling (AID 588537)
# condition.description: HEK293 PPARg-UAS-bla, beta-lactamase ratio, antagonist mode; series mostly up to 76.8 µM
Inconclusive results are not listed. Active and inactive are the calls of the source. Calls come from the whole dose curve; as a rule, active = well fitted inhibition curve with a large enough effect in the signal ratio, with a control signal flat (not every such curve was filed as active); inconclusive = small, poorly fitted or top-dose-only effect, or effect the other way, or a change in a side signal; inactive = flat fitted curve, though single readings scatter; the % refers to the signal ratio.
Hi! Could you answer with just one of these? active, inactive

>>> label_class("CNC(=O)Oc1cc(C)c(SC)c(C)c1")
"inactive"
>>> label_class("CCOc1nc(C(Cl)(Cl)Cl)ns1")
"inactive"

stdin: Test call, this molecule: CCC(C)n1c(=O)[nH]c(C)c(Br)c1=O (stereo not drawn)
stdout: inactive

stdin: Tell me the assay call for `CCCCOC(=O)[C@@H](C)Oc1ccc(Oc2ccc(C#N)cc2F)cc1` please.
stdout: inactive

stdin: How was `CNC(=O)N(C)c1nc2ccccc2s1` classified in this test?
stdout: inactive

stdin: Which outcome was entered for the molecule `CON=C(C(=O)OC)c1ccccc1CO/N=C(\C)c1cccc(C(F)(F)F)c1` in this test?
stdout: active

stdin: For `COc1nn(C(=O)NS(=O)(=O)c2ccccc2OC(F)(F)F)c(=O)n1C` , what call appears in the results of this test?
stdout: inactive

stdin: # outcome recorded in this test, key = `CNC(=O)Oc1cccc(N=CN(C)C)c1`
stdout: inactive

====

# Test system: 7G8
# assay: qHTS profiling for inhibitors of Plasmodium falciparum proliferation (AID 504749); also: nearly all actives have a fitted effect of over 60% in size
# condition.description: P. falciparum in erythrocytes, SYBR Green DNA, 72 h; series mostly up to 28.7 µM
Results filed as inconclusive are left out. Active and inactive are the calls of the source. Calls follow the shape of the dose curve; as a rule, active = well fitted inhibition curve with a large enough effect; inconclusive = small, poorly fitted or top-dose-only effect; inactive = flat fitted curve, though single readings scatter.
Entry note: the call must match one of true = active, false = inactive

>>> label_class("[S]=[Sb][S][Sb]=[S]")
"false"
>>> label_class("C[C@@H]1CC[C@H]2[C@@H](C)C(=O)O[C@@H]3OC4(C)CC[C@@H]1C32OO4 (stereo not given in full)")
"true"
>>> label_class("C#CC1(O)C=CC2C3CCC4=CC(=O)CCC4C3CCC21CC (stereo not given)")
"true"
>>> label_class("Cc1ccc2c(c1)[C@@H]1CN(C)CC[C@H]1N2")
"false"

stdin: Tell me the assay call for CCCCCC(O)C1C(=O)OC(C)C(O)\C=C/C=C\C=C/C=C\C=C(\C)C(O)C(O)C(O)CC(O)CC(O)CC(O)CC(O)CC1O (stereo not given) please.
stdout: false

====

# Tested on: CP335
# assay: qHTS profiling for inhibitors of Plasmodium falciparum proliferation (AID 504749); also: nearly all actives have a fitted effect of over 60% in size
# condition.description: P. falciparum in erythrocytes, SYBR Green DNA, 72 h; series mostly up to 28.7 µM
Records with an inconclusive call do not appear. Active and inactive are the calls of the source. The call rests on the fitted dose curve; in most records, active means well fitted inhibition curve with a large enough effect; inconclusive means small, poorly fitted or top-dose-only effect; inactive means flat fitted curve, though single readings scatter.
Respond only with the outcome that fits, drawn from t for active, f for inactive

Solved cases below.
>>> label_class("CCC/C=C/C=C/C(=O)OC1/C(=C/C(=O)OC)CC2CC(C(C)O)OC(=O)CC(O)CC3CC(OC(C)=O)C(C)(C)C(O)(CC4C/C(=C/C(=O)OC)CC(/C=C\\C(C)(C)C1(O)O2)O4)O3 (stereo not given)")
"t"
>>> label_class("CCCCCC(O)C1C(=O)OC(C)C(O)\\C=C/C=C\\C=C/C=C\\C=C(\\C)C(O)C(O)C(O)CC(O)CC(O)CC(O)CC(O)CC1O (stereo not given)")
"f"
>>> label_class("CC(CO)NC(=O)C1C=C2c3cccc4[nH]cc(c34)CC2N(C)C1 (stereo not given)")
"f"

stdin: For this compound, state the assay outcome: CC1(C)S[C@@H]2[C@H](N)C(=O)N2C1C(=O)O (stereo not given in full)
stdout: f

stdin: Called result for COC(=O)C1C(OC(=O)c2ccccc2)CC2CCC1N2C (stereo not given)
stdout: f

====

# assay: Cell Viability - LYMP2-024 (AID 988)
# condition.description: LYMP2-024 lymphoblastoid cell viability; series mostly up to 92.2 µM
Records with an inconclusive call do not appear. Active and inactive are the calls of the source. Calls come from the whole dose curve; as a rule, active = well fitted cell-killing curve with a large enough effect; inconclusive = small, poorly fitted or top-dose-only effect; inactive = flat fitted curve, though single readings scatter.
// allowed return values: active, inactive

Please review the following examples before continuing.
>>> label_class("O=[N+]([O-])C(Br)Br")
"active"
>>> label_class("c1cc(OCC2CO2)cc(OCC2CO2)c1 (stereo not drawn)")
"active"

stdin: Which outcome did this test record for the compound `Clc1ccc(C(c2ccc(Cl)cc2)C(Cl)Cl)cc1` ?
stdout: inactive

stdin: Each compound tested received a call. Report the one for `ClC1=C(Cl)C(Cl)(Cl)C(Cl)=C1Cl` .
stdout: active

stdin: Can you look up the reported call for `[CH3][Hg][Cl]` for me?
stdout: active

stdin: Per the records of this test, what outcome belongs to `CCCCCCCCn1sccc1=O` ?
stdout: active

stdin: Could you kindly confirm the outcome this assay logged for `O=Nc1ccc(Nc2ccccc2)cc1` ?
stdout: active

stdin: Please indicate how the test categorized `FC(F)(F)c1ccc(Cl)cc1` .
stdout: inactive

stdin: I would be grateful if you could indicate the recorded call for `OC(c1ccc(Cl)cc1)(c1ccc(Cl)cc1)C(Cl)(Cl)Cl` .
stdout: inactive

stdin: Short answer needed: outcome of this test for `O=[N+]([O-])c1cc(C(F)(F)F)cc([N+](=O)[O-])c1Cl` ?
stdout: active

stdin: Hi, sorry to bother you, what did the test record for `C[C@@H]1CC[C@@]2(OC1)O[C@H]1[C@@H](O)[C@H]3[C@@H]4CC[C@H]5C[C@@H](O[C@@H]6O[C@H](CO)[C@H](O[C@@H]7O[C@H](CO)[C@@H](O)[C@H](O[C@@H]8OC[C@@H](O)[C@H](O)[C@H]8O)[C@H]7O[C@@H]7O[C@H](CO)[C@@H](O)[C@H](O[C@@H]8O[C@H](CO)[C@@H](O)[C@H](O)[C@H]8O)[C@H]7O)[C@H](O)[C@H]6O)[C@H](O)C[C@]5(C)[C@H]4CC[C@]3(C)[C@H]1[C@@H]2C` ?
stdout: active

stdin: Write down the call the test reported for this compound. Item: O=C1C2(Cl)C3(Cl)C4(Cl)C(Cl)(Cl)C5(Cl)C3(Cl)C1(Cl)C5(Cl)C24Cl (stereo not drawn)
stdout: inactive

stdin: Could you check what this test reported for `CN(C)c1ccc(N=O)cc1` ?
stdout: active
